Data origin: patent US20220411492A1

target: human Claudin 18.2 (hCLDN18.2) (human, UniProt P56856-2 1-261); experiment: cell-based or functional assay
The following binders are listed with their measured ADCC Maximum lysis (%) values.
Enter your answer as a number in %; do not include the unit.

| binder | quantityUnit | ADCC Maximum lysis (%) |
| --- | --- | --- |
| hu299B2-S32A-4 (antibody, V domains shown, also called humanized antibody hu299B2-S32A) VH: QVQLVQSGAEVKKPGASVKVSCKTSGYIFTNYWIHWVRQAPGQGLEWMGRIYPGTGNTYYNEKFTGRVTLTADTSTSTVYMELSSLRSEDTAVYYCSREGYGKGNSMDYWGQGTTVTVSS VL: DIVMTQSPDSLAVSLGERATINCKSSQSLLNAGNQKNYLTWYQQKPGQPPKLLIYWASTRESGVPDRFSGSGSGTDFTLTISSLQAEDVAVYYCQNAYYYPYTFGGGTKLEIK | % | 63.2 |
| hu299B2-S32A-1 (antibody, V domains shown, also called humanized antibody hu299B2-S32A) VH: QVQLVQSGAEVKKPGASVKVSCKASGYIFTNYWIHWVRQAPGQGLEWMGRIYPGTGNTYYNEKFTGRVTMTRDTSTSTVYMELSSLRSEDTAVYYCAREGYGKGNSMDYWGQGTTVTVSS VL: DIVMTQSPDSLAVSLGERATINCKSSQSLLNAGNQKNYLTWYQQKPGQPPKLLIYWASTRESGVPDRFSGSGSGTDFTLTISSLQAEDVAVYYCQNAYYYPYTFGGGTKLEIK | % | 57.9 |
| hu299B2-S32A-3 (antibody, V domains shown, also called humanized antibody hu299B2-S32A) VH: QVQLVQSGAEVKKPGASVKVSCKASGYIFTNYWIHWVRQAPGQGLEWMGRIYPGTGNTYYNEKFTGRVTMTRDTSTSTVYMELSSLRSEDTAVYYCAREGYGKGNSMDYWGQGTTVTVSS VL: DIVMTQSPDSLAVSLGERVTMNCKSSQSLLNAGNQKNYLTWYQQKPGQPPKLLFYWASTRESGVPDRFSGSGSGTDFTLTISSVQAEDVAVYHCQNAYYYPYTFGGGTKLEIK | % | 69.1 |

In the following, a different binder is considered.
// sample hu299B2-S32A-2 (antibody, V domains shown, also called humanized antibody hu299B2-S32A) VH: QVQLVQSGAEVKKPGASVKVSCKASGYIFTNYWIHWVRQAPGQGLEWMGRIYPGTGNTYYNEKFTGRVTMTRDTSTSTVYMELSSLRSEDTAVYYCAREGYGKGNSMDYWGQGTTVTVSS VL: DIVMTQSPDSLAVSLGERATMNCKSSQSLLNAGNQKNYLTWYQQKPGQPPKLLFYWASTRESGVPDRFSGSGSGTDFTLTISSLQAEDVAVYHCQNAYYYPYTFGGGTKLEIK , its ADCC Maximum lysis (%) was 68.1
